# assay_method_text: Fraction unbound in human plasma
# Type: ADME, cell-free
reported_endpoint: fraction unbound
Lab note: record the figure alone, no unit after it.

query: Quickly give me recorded fraction unbound for COCCOc1ccc(-c2ccc(COc3ncccc3C(N)=O)nc2)c(C)c1
result: 0.042

###

# Tested on: Mycobacterium tuberculosis
# assay_method_text: Antimicrobial activity against Mycobacterium tuberculosis H37Rv ATCC 27294 after 5 days by microdilution method
# Assay type: functional
# experimental_setup: H37Rv ATCC 27294, 120 h
For each of the compounds below, state its MIC.

query: Send back Mycobacterium tuberculosis MIC of NC(=O)c1cccnc1OCc1ccc(-c2ccccc2)cn1 only.
result: > 50 µM

query: Send back Mycobacterium tuberculosis MIC of CCN(CC)CCOc1ccc(-c2ccc(COc3ncccc3C(N)=O)nc2)c(C)c1 only.
result: > 100 µM

query: Send back Mycobacterium tuberculosis MIC of Cn1ccnc1-c1ccc(COc2ncccc2C(N)=O)cc1 only.
result: > 100 µM

query: Send back Mycobacterium tuberculosis MIC of COCCOc1ccc(-c2ccc(COc3ncccc3C(=O)N(C)C)nc2)c(C)c1 only.
result: > 75 µM

query: Send back Mycobacterium tuberculosis MIC of COCCOc1ccc(-c2ccc(COc3ncccc3C(=O)N3CCC(O)C3)nc2)c(C)c1 (stereo not given) only.
result: > 75 µM

###

# assay_method_text: Cytotoxicity against human THP1 cells after 24 hrs by resazurin assay
# Assay type: cell-based, THP-1
# experimental_setup: read-out: MIC
For each of the molecules below, state its MCC at 24 h.

query: Quickly give me recorded MCC at 24 h for CNS(=O)(=O)c1cccnc1OCc1ccc(-c2ccc(OCCOC)cc2C)cn1
result: > 50 µM

query: Quickly give me recorded MCC at 24 h for COc1ccc(-c2ccc(COc3ncccc3C(N)=O)nc2)c(C)c1
result: > 50 µM

query: Quickly give me recorded MCC at 24 h for COc1ccc(-c2ccc(COc3ncccc3C(N)=O)nc2)c(Cl)c1
result: > 50 µM

query: Quickly give me recorded MCC at 24 h for Cc1cc(OCCN2CCOCC2)ccc1-c1ccc(COc2ncccc2C(N)=O)nc1
result: > 50 µM

query: Quickly give me recorded MCC at 24 h for NC(=O)c1cccnc1OCc1ncc(-c2ccc(OCCCF)cc2Cl)cn1
result: > 250 µM

query: Quickly give me recorded MCC at 24 h for COCCOc1ccc(-c2cnc(COc3ncccc3C(N)=O)nc2)c(C)c1
result: > 50 µM

query: Quickly give me recorded MCC at 24 h for COCCOc1ccc(-c2cnc(COc3ncccc3C(N)=O)nc2)c(Cl)c1
result: > 250 µM

query: Quickly give me recorded MCC at 24 h for Cc1cc(OC[C@@H]2CCCO2)ccc1-c1ccc(COc2ncccc2C(N)=O)nc1
result: > 50 µM
